Target: human αV on parental A375M cells (αVβ3 and αVβ5) (human) (UniProt P06756)
Assay: FACS, supernatant, parental A375M cells (αVβ3 and αVβ5, no αVβ6)
measurement_type: A375M GeoMean
Form: value (number only, do not type unit).

[
  {
    "binder": "sc 133 (antibody, V domains shown) VH: QVQLVQSGAEVKKPGASVKVSCKASGYTFTGYYMHWVRQAPGQGLEWMGWINPKSGDTNYAQKFQGRVTLTRDTSTSTAYMELSRLRSDDTAVYYCARRLDVWGQGTTVTVSS VL: QSVLTQPPSVSAAPGQKVTISCSGSSSNIGNNYVSWYQQLPGTAPKLLIYDNNKRPSGIPDRFSGSKSGTSATLGITGLQTGDEADYYCGTWNSSLSAGYVFGTGTKVTV",
    "A375M GeoMean": 1.79
  }
]

Please find the next binder below.
Quickly give me recorded A375M GeoMean for sc 264 (antibody, V domains shown) VH: QVQLQESGPGLVKPSQTLSLTCTVSGGSISSGGYYWSWIRQHPGKGLEWIGYIYYSGRTYNNPSLKSRVTISVDTSKNQFSLKLSSVTAADTAVYYCARVATGRGDYHFYAMDVWGQGTTVTVSS VL: SYELTQPSSVSVSPGQTARITCSGDVLAKKSARWFHQKPGQAPVLVIYKDSERPSGIPERFSGSSSGTTVTLTISGAQVEDEAAYYCYSAADNNLVFGGGTKLTVL 2.35

These measurements were taken from patent US20150166663A1.
